B1: HEEH_KT_rd6_3546 (parent)
chain: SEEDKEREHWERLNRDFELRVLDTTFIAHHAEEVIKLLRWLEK

Variants of: B1
MEASUREMENT_DESCRIPTION: folding stability dG (cDNA display proteolysis); higher = more stable
CONDITION_SUMMARY: PBS, room temperature
Examples of variants with documented folding stability dG follow.

- VARIANT_ANNOTATION: "D4A"
  folding stability dG / kcal/mol: 1.38
- VARIANT_ANNOTATION: "L38S"
  folding stability dG / kcal/mol: 0.079
- VARIANT_ANNOTATION: "K43A"
  folding stability dG / kcal/mol: 1.27
- VARIANT_ANNOTATION: "I35W"
  folding stability dG / kcal/mol: 1.59
- VARIANT_ANNOTATION: "E3F"
  folding stability dG / kcal/mol: 1.63
- VARIANT_ANNOTATION: "A31I"
  folding stability dG / kcal/mol: 2.19
- VARIANT_ANNOTATION: "L13R"
  folding stability dG / kcal/mol: 1.88
- VARIANT_ANNOTATION: "R20K"
  folding stability dG / kcal/mol: 1.36
- VARIANT_ANNOTATION: "L13S"
  folding stability dG / kcal/mol: 1.26
- VARIANT_ANNOTATION: "D4Q"
  folding stability dG / kcal/mol: 1.42
- VARIANT_ANNOTATION: "T25K"
  folding stability dG / kcal/mol: 1.16
- VARIANT_ANNOTATION: "D23N"
  folding stability dG / kcal/mol: 1.45
- VARIANT_ANNOTATION: "E11T"
  folding stability dG / kcal/mol: 1.91
- VARIANT_ANNOTATION: "K36E"
  folding stability dG / kcal/mol: 0.928
- VARIANT_ANNOTATION: "E33G"
  folding stability dG / kcal/mol: 1.47
- VARIANT_ANNOTATION: "L19S"
  folding stability dG / kcal/mol: 0.796
- VARIANT_ANNOTATION: "E33M"
  folding stability dG / kcal/mol: 2.06
- VARIANT_ANNOTATION: "I27Y"
  folding stability dG / kcal/mol: 1.25
- VARIANT_ANNOTATION: "E42G"
  folding stability dG / kcal/mol: 1.7
- VARIANT_ANNOTATION: "L22Q"
  folding stability dG / kcal/mol: 0.891
- VARIANT_ANNOTATION: "E42M"
  folding stability dG / kcal/mol: 2.4
- VARIANT_ANNOTATION: "T25I"
  folding stability dG / kcal/mol: 1.7
- VARIANT_ANNOTATION: "E32S"
  folding stability dG / kcal/mol: 1.42
- VARIANT_ANNOTATION: "I35T"
  folding stability dG / kcal/mol: 0.787
- VARIANT_ANNOTATION: "D4R"
  folding stability dG / kcal/mol: 1.39
- VARIANT_ANNOTATION: "E32Y"
  folding stability dG / kcal/mol: 1.9
- VARIANT_ANNOTATION: "K5N"
  folding stability dG / kcal/mol: 1.29
- VARIANT_ANNOTATION: "W40C"
  folding stability dG / kcal/mol: 1.55
- VARIANT_ANNOTATION: "W40D"
  folding stability dG / kcal/mol: 0.502
- VARIANT_ANNOTATION: "L37I"
  folding stability dG / kcal/mol: 1.23
- VARIANT_ANNOTATION: "R12T"
  folding stability dG / kcal/mol: 1.53
- VARIANT_ANNOTATION: "R15P"
  folding stability dG / kcal/mol: 1.11
- VARIANT_ANNOTATION: "H30G"
  folding stability dG / kcal/mol: 1.44
- VARIANT_ANNOTATION: "K43M"
  folding stability dG / kcal/mol: 1.5
- VARIANT_ANNOTATION: "I35N"
  folding stability dG / kcal/mol: 0.739
- VARIANT_ANNOTATION: "L13P"
  folding stability dG / kcal/mol: 1.14
- VARIANT_ANNOTATION: "S1T"
  folding stability dG / kcal/mol: 1.4
- VARIANT_ANNOTATION: "E6R"
  folding stability dG / kcal/mol: 1.38
- VARIANT_ANNOTATION: "D23G"
  folding stability dG / kcal/mol: 1.64
- VARIANT_ANNOTATION: "S1R"
  folding stability dG / kcal/mol: 1.36
- VARIANT_ANNOTATION: "L22S"
  folding stability dG / kcal/mol: 0.925
- VARIANT_ANNOTATION: "E6K"
  folding stability dG / kcal/mol: 1.18
- VARIANT_ANNOTATION: "E8W"
  folding stability dG / kcal/mol: 2.04
- VARIANT_ANNOTATION: "V34A"
  folding stability dG / kcal/mol: 1.06
- VARIANT_ANNOTATION: "E32Q"
  folding stability dG / kcal/mol: 1.29
- VARIANT_ANNOTATION: "L37P"
  folding stability dG / kcal/mol: -0.172
